Tested on: WA09 human embryonic stem (hES) cells
Assay Name: PLS-DA prediction of teratogenicity from secretome of treated hES cells (Example 9)
Conditions Used: DevTox pharmaceutical, low dose (L = 0.1x circulating dose)
Hi, to clarify the labels: Condition met covers Confidence (difference between class probabilities) from 0.2 upward, Condition not met covers anything below 0.2.

// below: answered molecules
O=C1CCC(N2C(=O)c3ccccc3C2=O)C(=O)N1 (stereo not shown) [Thalidomide]: Condition met
CC1=C(/C=C/C(C)=C/C=C/C(C)=C/C(=O)O)C(C)(C)CCC1: Condition met
N[C@@H](Cc1cc(I)c(Oc2cc(I)c(O)c(I)c2)c(I)c1)C(=O)O: Condition met
O=P1(N(CCCl)CCCl)NCCCO1 (stereo not shown) [Cyclophosphamide]: Condition not met
CC1(C)S[C@@H]2[C@H](NC(=O)Cc3ccccc3)C(=O)N2[C@H]1C(=O)O: Condition not met
O=c1[nH]cc(F)c(=O)[nH]1: Condition met
O=C1O[C@H]([C@@H](O)CO)C(O)=C1O: Condition not met
NC(=O)N1c2ccccc2C=Cc2ccccc21 [Carbamazepine]: Condition not met
Cn1c(=O)c2c(ncn2C)n(C)c1=O: Condition not met

Let us examine a further case.
Decide: Confidence (difference between class probabilities) of CN(C)CCOC(c1ccccc1)c1ccccc1 [Diphenhydramine] >= 0.2? Condition met
